# target: T1, GIP Receptor (Rattus norvegicus (Rat)), P43219
# T1 chain: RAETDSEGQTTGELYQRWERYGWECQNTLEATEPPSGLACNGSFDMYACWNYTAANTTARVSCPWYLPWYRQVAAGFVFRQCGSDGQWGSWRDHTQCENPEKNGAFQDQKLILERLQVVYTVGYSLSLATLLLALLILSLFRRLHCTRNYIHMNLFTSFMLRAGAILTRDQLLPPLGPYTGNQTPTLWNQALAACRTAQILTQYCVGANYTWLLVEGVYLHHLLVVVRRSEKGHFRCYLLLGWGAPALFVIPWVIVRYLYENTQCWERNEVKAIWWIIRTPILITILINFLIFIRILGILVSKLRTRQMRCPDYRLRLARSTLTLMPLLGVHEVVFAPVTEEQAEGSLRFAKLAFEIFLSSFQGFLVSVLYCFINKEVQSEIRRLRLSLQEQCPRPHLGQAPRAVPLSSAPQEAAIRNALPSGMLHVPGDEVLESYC
# assay: GIP RBA
readout: IC50 (nM)
Lab book: enter the figure in nM, no units written.

QUERY: So what does the record say about IC50 for YAEGTFISDYSIAMDKIHQQDFVNWLLAQKPSSGAPPPS (modifications not checked) [0601GIP4252] ?
RESULT: 5.6
